# protocol: Inhibition of Protein Kinase A (PKA).
pIC50: −log10 of the molar value.
observable: pIC50

NN1C(=O)c2c(c3c4ccccc4[nH]c3c3[nH]c4ccccc4c23)C1=O = 4.35
O=C1NC(=O)c2c1c1c3ccccc3[nH]c1c1[nH]c3ccccc3c21 = 4.22
O=C1NCc2c1c1c3ccccc3[nH]c1c1[nH]c3ccccc3c21 = 4.59
O=C1c2c(c3c4ccccc4[nH]c3c3[nH]c4ccccc4c23)C(=O)N1O = 4.38
O=C1NC(O)c2c1c1c3ccccc3[nH]c1c1[nH]c3ccccc3c21 (stereo unspecified) = 4.47

###

DNA topoisomerase I (Bos taurus) measurements of MIC, listed per entry.
observable: MIC (µg/mL)

CO[C@H]1[C@H](O)[C@@H](O)[C@H](n2c3ccccc3c3c4c(c5c6ccccc6[nH]c5c32)C(=O)NC4=O)O[C@@H]1CO = 1

1: COC1C(CO)OC(n2c3c(Cl)cccc3c3c4c(c5c6cccc(Cl)c6[nH]c5c32)C(=O)N(O)C4=O)C(O)C1O (stereo not given)
2: COC1C(CO)OC(n2c3ccccc3c3c4c(c5c6ccccc6[nH]c5c32)C(=O)N(N)C4=O)C(O)C1O (stereo not given)
Prompt: I'd appreciate it if you could identify which of 1 and 2 has the greater MIC. Bench note: the answer is the label of the chosen record.
Completion: 1

1: COC1C(CO)OC(n2c3c(Cl)cccc3c3c4c(c5c6cccc(Cl)c6[nH]c5c32)C(=O)N(N)C4=O)C(O)C1O (stereo not given)
2: COC1C(CO)OC(n2c3c(Cl)cccc3c3c4c(c5c6cccc(Cl)c6[nH]c5c32)C(=O)N(NC=O)C4=O)C(O)C1O (stereo not given)
Prompt: Problem: Given the entries 1 and 2 , determine which has the lower reported MIC. Bench note: the answer is the label of the chosen record.
Completion: 1
(1: 0.1 µg/mL, 2: 1 µg/mL)

###

DNA topoisomerase I (Bos taurus) measurements of MIC, listed per entry.
observable: MIC (µg/mL)

Example compounds with recorded MIC:
COC1C(CO)OC(n2c3c(Cl)cccc3c3c4c(c5c6cccc(Cl)c6[nH]c5c32)CNC4=O)C(O)C1O (stereo not given) = 1
COC1C(CO)OC(n2c3ccccc3c3c4c(c5c6ccccc6[nH]c5c32)C(=O)N(NC=O)C4=O)C(O)C1O (stereo not given) = 0.1

a: COC1C(CO)OC(n2c3ccccc3c3c4c(c5c6ccccc6[nH]c5c32)C(=O)N(O)C4=O)C(O)C1O (stereo not given)
b: O=CNN1C(=O)c2c(c3c4ccccc4[nH]c3c3[nH]c4ccccc4c23)C1=O
Prompt: Problem: Given the entries a and b , determine which has the lower reported MIC. Bench note: the answer is the label of the chosen record.
Completion: a

###

# measuredOn: Protein kinase C alpha type (Homo sapiens, UniProt P17252)
# protocol: Inhibition of Protein Kinase C(PKC)
observable: IC50

Example molecules with recorded IC50:
COC1C(CO)OC(n2c3ccccc3c3c4c(c5c6ccccc6[nH]c5c32)C(=O)N(N)C4=O)C(O)C1O (stereo unspecified) = > 100 µM
O=C1NC(O)c2c1c1c3cccc(Cl)c3[nH]c1c1[nH]c3c(Cl)cccc3c21 (stereo unspecified) = > 100 µM
COC1C(CO)OC(n2c3c(Cl)cccc3c3c4c(c5c6cccc(Cl)c6[nH]c5c32)C(=O)N(N)C4=O)C(O)C1O (stereo unspecified) = > 100 µM
NNC(=O)NN1C(=O)c2c(c3c4ccccc4[nH]c3c3[nH]c4ccccc4c23)C1=O = 78 µM
O=C1c2c(c3c4ccccc4[nH]c3c3[nH]c4ccccc4c23)C(=O)N1O = 79.2 µM

In plain terms, COC1C(CO)OC(n2c3c(Cl)cccc3c3c4c(c5c6cccc(Cl)c6[nH]c5c32)CNC4=O)C(O)C1O (stereo unspecified) has a documented IC50 of 28.8 µM

###

Listing of recorded MIC by entry.
# System: DNA topoisomerase I (Bos taurus)

O=C1c2c(c3c4ccccc4[nH]c3c3[nH]c4ccccc4c23)C(=O)N1O = > 10 mg/L

Summary line: COC1C(CO)OC(n2c3ccccc3c3c4c(c5c6ccccc6[nH]c5c32)CNC4=O)C(O)C1O (stereo not given) , DNA topoisomerase I (Bos taurus), reported MIC = 0.01 mg/L

Summary line: O=C1NC(O)c2c1c1c3cccc(Cl)c3[nH]c1c1[nH]c3c(Cl)cccc3c21 (stereo not given) , DNA topoisomerase I (Bos taurus), reported MIC = > 10 mg/L

Summary line: NN1C(=O)c2c(c3c4cccc(Cl)c4[nH]c3c3[nH]c4c(Cl)cccc4c23)C1=O , DNA topoisomerase I (Bos taurus), reported MIC = > 10 mg/L

Summary line: O=C1c2c(c3c4ccccc4[nH]c3c3[nH]c4ccccc4c23)C(=O)N1CCO , DNA topoisomerase I (Bos taurus), reported MIC = > 10 mg/L

###

# measuredOn: Protein kinase C alpha type (Homo sapiens)
observable: IC50

Example compounds with recorded IC50:
O=CNN1C(=O)c2c(c3c4ccccc4[nH]c3c3[nH]c4ccccc4c23)C1=O = > 100 µM
CO[C@H]1[C@H](O)[C@@H](O)[C@H](n2c3ccccc3c3c4c(c5c6ccccc6[nH]c5c32)C(=O)NC4=O)O[C@@H]1CO = > 100 µM
O=C1NCc2c1c1c3cccc(Cl)c3[nH]c1c1[nH]c3c(Cl)cccc3c21 = > 100 µM
COC1C(CO)OC(n2c3ccccc3c3c4c(c5c6ccccc6[nH]c5c32)CNC4=O)C(O)C1O (stereo not given) = 3.7 µM

Could you now consider this next compound?
Summary line: COC1C(CO)OC(n2c3ccccc3c3c4c(c5c6ccccc6[nH]c5c32)C(=O)N(NC=O)C4=O)C(O)C1O (stereo not given) , Protein kinase C alpha type (Homo sapiens), reported IC50 = > 100 µM
